system: 772245-204-R-J1-PDC complex spheroid growth; assay: Anticancer human tumor 772245-204-R-J1-PDC patient-derived rhabdomyosarcoma cell line growth inhibition [Asc]; settings: second compound 0.03 µM; first compound 0.1 µM; hits give low values;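 also: compound exposure lasted seven days; 100% = DMSO vehicle control viability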
Measured quantity: viability, T/C (%)
Just the number please, in %, no unit attached.

Compound	Unit string	Measurement
C=C(F)C(=O)N1CCN(c2nc(OCC3CCCN3C)nc3c2CCN(c2cccc4cccc(Cl)c24)C3)CC1CC#N (stereo not given) + CCN1C(C(=O)NC23CCC(C(=O)O)(CC2)CC3)C(c2cccc(Cl)c2F)C2(C(=O)Nc3cc(Cl)ccc32)C12CCCCC2	%	101
Cn1ncnc1[C@H]1c2n[nH]c(=O)c3cc(F)cc(c23)N[C@@H]1c1ccc(F)cc1 + CCN1C(C(=O)NC23CCC(C(=O)O)(CC2)CC3)C(c2cccc(Cl)c2F)C2(C(=O)Nc3cc(Cl)ccc32)C12CCCCC2	%	81.9
O=C(c1ccc(F)c(F)c1Nc1ccc(I)cc1F)N1CC(O)([C@@H]2CCCCN2)C1 + CCN1C(C(=O)NC23CCC(C(=O)O)(CC2)CC3)C(c2cccc(Cl)c2F)C2(C(=O)Nc3cc(Cl)ccc32)C12CCCCC2	%	112
COc1c(OCCCN2CCOCC2)ccc2c3n(c(=NC(=O)c4cnc(N)nc4)nc12)CCN3 + CCN1C(C(=O)NC23CCC(C(=O)O)(CC2)CC3)C(c2cccc(Cl)c2F)C2(C(=O)Nc3cc(Cl)ccc32)C12CCCCC2	%	61.6

q: Please list viability, T/C recorded for the compound O=C(c1cc(Cc2n[nH]c(=O)c3ccccc23)ccc1F)N1CCN(C(=O)C2CC2)CC1 + CCN1C(C(=O)NC23CCC(C(=O)O)(CC2)CC3)C(c2cccc(Cl)c2F)C2(C(=O)Nc3cc(Cl)ccc32)C12CCCCC2
a: 113

q: Using known records, supply viability, T/C for CCN1CCN(Cc2ccc(Nc3ncc(F)c(-c4cc(F)c5nc(C)n(C(C)C)c5c4)n3)nc2)CC1 + CCN1C(C(=O)NC23CCC(C(=O)O)(CC2)CC3)C(c2cccc(Cl)c2F)C2(C(=O)Nc3cc(Cl)ccc32)C12CCCCC2
a: 110

q: Return the recorded viability, T/C value; entry: CNC(C)C(=O)NC1CN(S(=O)(=O)c2cccc(S(=O)(=O)N3CCC4CCC(C(=O)NC(c5ccccc5)c5ccccc5)N4C(=O)C(NC(=O)C(C)NC)C3)c2)CCC2CCC(C(=O)NC(c3ccccc3)c3ccccc3)N2C1=O (stereo not given) + CCN1C(C(=O)NC23CCC(C(=O)O)(CC2)CC3)C(c2cccc(Cl)c2F)C2(C(=O)Nc3cc(Cl)ccc32)C12CCCCC2
a: 91.8

q: Check the records and state viability, T/C for NC1CCC(NC2CC2c2ccccc2)CC1 (stereo not given) + CCN1C(C(=O)NC23CCC(C(=O)O)(CC2)CC3)C(c2cccc(Cl)c2F)C2(C(=O)Nc3cc(Cl)ccc32)C12CCCCC2
a: 98.1

q: Supply measured viability, T/C of C#Cc1c(F)ccc2cc(O)cc(-c3ncc4c(N5CC6CCC(C5)N6)nc(OCC56CCCN5CC(F)C6)nc4c3F)c12 (stereo not given) + CCN1C(C(=O)NC23CCC(C(=O)O)(CC2)CC3)C(c2cccc(Cl)c2F)C2(C(=O)Nc3cc(Cl)ccc32)C12CCCCC2 in your reply.
a: 106

q: Please report the measured viability, T/C for C=CC(=O)N1CCN(c2nc(=O)n(-c3c(C)ccnc3C(C)C)c3nc(-c4c(O)cccc4F)c(F)cc23)C(C)C1 (stereo not given) + CCN1C(C(=O)NC23CCC(C(=O)O)(CC2)CC3)C(c2cccc(Cl)c2F)C2(C(=O)Nc3cc(Cl)ccc32)C12CCCCC2
a: 102
